As shown below, each of these sequences has a reported pKd value.
- Assayed target: rPtsA (Streptococcus pneumoniae serotype 4)
- Procedure summary: biochemical
- Assay type: binding
Ends that are not written are not given here.
In plain terms, pKd is the concentration in mol/L turned into minus its base-10 logarithm.

# Sequence chain, pKd
data = [
    ("DQVARIPVIRRV [Intβ4]", 3.94),
]

# next sequence below
What does the record list as pKd for VLVKNDARRTRS [BMPER] ?
4.68
